- System tested: T1, Recombinant MBP-mutCALR Type 1 fusion protein (human)
- T1 construct: custom made at Cepter; also called recombinant mutCALR protein
- Measurement notes: SPR, IgG captured, 1:1 fit, Exp. 2
Readout kind: koff (s⁻¹)
Kindly answer with a numeric value in s⁻¹, unit omitted.

Answered examples (3):
anti-mutCALR antibody clone 126 (antibody, human IgG1, lambda, N297A, V domains shown, human IgG1 N297A variant of clone 15) VH: EVQLVQSGAEVKKPGASVKVSCKVSGYTLTELSMQWVRQAPGKGLEWMGGFDPDSGETMYAEKFQGRLTVTEDTSTDTVYMELRSLTSEDTALYFCATSPGYDFFDYWGQGTLVTVSS VL: SYELTQPPSVSVAPGKTARITCGGDNIGSKSVHWYQQKPGQAPVLVVYDDSDRPSGIPERFSGSNSGNTATLTINRVEAGDEADYYCQVWDSSNDLLIFGGGTKLTVLG = 0.00153
anti-mutCALR antibody clone 187 (antibody, human IgG1, lambda, N297A, V domains shown, human IgG1 N297A variant of clone 17) VH: EVQLVQSGAEVKKPGASVKVSCKVSGYTLTELSMQWVRQAPGKGLEWMGGFDPDSGETMYAEKFQGRLTVTEDTSTDTVYMELSSLRSEDTAVYFCATSPGYDFFDYWGQGTLVTVSS VL: SYVLTQPPSVSVAPGQTARITCGGSDIGDEIVHWYQQKPGQAPVLVVYDDSDRPSGIPERFSGSNSGNTATLTISRVEAGDEADYYCQVWDSSSDHLIFGGGTKLTVLG = 0.0163
anti-mutCALR antibody clone 141 (antibody, human IgG1, lambda, N297A, V domains shown, human IgG1 N297A variant of clone 15) VH: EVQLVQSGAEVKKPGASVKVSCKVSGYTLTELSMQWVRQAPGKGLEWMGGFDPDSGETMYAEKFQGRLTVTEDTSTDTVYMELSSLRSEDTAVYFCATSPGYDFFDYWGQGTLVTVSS VL: SYVLTQPPSVSVAPGKTARITCGGDNIGSKSVHWYQQKPGQAPVLVVYDDSDRPSGIPERFSGSNSGNTATLTISRVEAGDEADYYCQVWDSSNDLLIFGGGTKLTVLG = 0.0187

Moving on to the next binder.
Summary for this binder, anti-mutCALR antibody clone 72 (antibody, human IgG1, lambda, N297A, V domains shown, human IgG1 N297A variant of clone 6) VH: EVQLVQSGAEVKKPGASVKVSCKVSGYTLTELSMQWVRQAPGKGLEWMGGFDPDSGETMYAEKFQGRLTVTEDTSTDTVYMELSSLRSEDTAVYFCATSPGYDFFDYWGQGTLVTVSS VL: SYVLTQPPSVSVAPGKTARITCTGTSSDVGGYNYVSWYQQKPGQAPVLVVYEVSNRPSGIPERFSGSNSGNTATLTISRVEAGDEADYYCQVWDSSNDLLIFGGGTKLTVLG : koff is 0.00382
